Each entry below carries its recorded Synergism with Actinomycin D, normalized absorbance, Drug Resistant C5S32, +ACT D.
# System: Chinese hamster ovary (CHO) cells, drug resistant C5S32
# assay-method-text: In vitro cytotoxicity / potentiation of Actinomycin D in Chinese hamster ovary cells, drug resistant C5S32 (MTT)
# Format: cell-based
# experimental-setup: 1 μM potentiating agent + Act D 0.5 μM; 96 h; fraction of Act D alone (1.00)
Counter-ions that a name gives are not always drawn.
Note: the reply should be a number with no unit written.

compound	numeric-result
CCN(CC)CC/C=C1\c2ccccc2COc2ccc(Br)cc21 [(N)]	0.85
CN(C)CC/C=C1/c2ccccc2COc2ccc(Br)cc21.Cl.Cl.Cl [(A)]	0.71
Brc1cccc2c1OCc1ccccc1C2=CCN1CCCC1 [(J)]	0.66
CN(C)CC/C=C1/c2cc(Br)ccc2COc2ccccc21 [(C)]	0.90
CN(C)CCC=C1c2ccc(Br)cc2COc2ccccc21 [(L)]	0.85

response.value for CN(C)CC/C=C1\c2ccccc2COc2ccc(F)cc21 [(P)] (field: Synergism with Actinomycin D, normalized absorbance, Drug Resistant C5S32, +ACT D) = 0.70

response.value for CN(C)CC/C=C1\c2cc(Br)ccc2COc2ccc(Br)cc21 [(V)] (field: Synergism with Actinomycin D, normalized absorbance, Drug Resistant C5S32, +ACT D) = 0.87

response.value for Brc1ccc2c(c1)/C(=C/CCN1CCCC1)c1cc(Br)ccc1OC2 [(O)] (field: Synergism with Actinomycin D, normalized absorbance, Drug Resistant C5S32, +ACT D) = 0.58

response.value for CN(C)CCC=C1c2ccccc2COc2ccccc21 [(W), doxepin, reference compound] (field: Synergism with Actinomycin D, normalized absorbance, Drug Resistant C5S32, +ACT D) = 0.86

response.value for Fc1ccc2c(c1)/C(=C/CCN1CCCC1)c1ccccc1CO2 [(S)] (field: Synergism with Actinomycin D, normalized absorbance, Drug Resistant C5S32, +ACT D) = 0.94

response.value for Brc1ccc2c(c1)/C(=C\CCN1CCCC1)c1ccccc1CO2 [(G)] (field: Synergism with Actinomycin D, normalized absorbance, Drug Resistant C5S32, +ACT D) = 0.47

response.value for Brc1ccc2c(c1)/C(=C/CCN1CCCC1)c1ccccc1CO2 [(K)] (field: Synergism with Actinomycin D, normalized absorbance, Drug Resistant C5S32, +ACT D) = 0.79

response.value for CN(C)CC/C=C1/c2ccccc2COc2cc(Br)ccc21 [(E)] (field: Synergism with Actinomycin D, normalized absorbance, Drug Resistant C5S32, +ACT D) = 0.66

response.value for CN(C)CC/C=C1/c2ccccc2COc2ccc(F)cc21 [(Q)] (field: Synergism with Actinomycin D, normalized absorbance, Drug Resistant C5S32, +ACT D) = 0.69

response.value for Brc1ccc2c(c1)/C(=C\CCN1CCCC1)c1cc(Br)ccc1OC2 [(R)] (field: Synergism with Actinomycin D, normalized absorbance, Drug Resistant C5S32, +ACT D) = 0.52

response.value for CCN(CC)CC/C=C1/c2ccccc2COc2ccc(Br)cc21 [(I)] (field: Synergism with Actinomycin D, normalized absorbance, Drug Resistant C5S32, +ACT D) = 0.77

response.value for CN(C)CC/C=C1\c2ccccc2COc2ccc(Br)cc21 [(B), hydrochloride] (field: Synergism with Actinomycin D, normalized absorbance, Drug Resistant C5S32, +ACT D) = 0.82

response.value for Brc1ccc2c(c1)/C(=C\CN1CCCC1)c1ccccc1CO2 [(F)] (field: Synergism with Actinomycin D, normalized absorbance, Drug Resistant C5S32, +ACT D) = 0.68

response.value for Brc1ccc2c(c1)/C(=C/CCN1CCCC1)c1ccccc1OC2 [(M)] (field: Synergism with Actinomycin D, normalized absorbance, Drug Resistant C5S32, +ACT D) = 0.83

response.value for C(/CN1CCCC1)=C1\c2ccccc2COc2ccccc21 [(H), hydrochloride] (field: Synergism with Actinomycin D, normalized absorbance, Drug Resistant C5S32, +ACT D) = 0.95

response.value for CN(C)CC/C=C1/c2cc(Br)ccc2COc2ccc(Br)cc21 [(U)] (field: Synergism with Actinomycin D, normalized absorbance, Drug Resistant C5S32, +ACT D) = 0.93

response.value for CN(C)CC/C=C1/c2ccccc2COc2c(Br)cccc21 [(D)] (field: Synergism with Actinomycin D, normalized absorbance, Drug Resistant C5S32, +ACT D) = 0.71

response.value for Fc1ccc2c(c1)/C(=C\CCN1CCCC1)c1ccccc1CO2 [(T)] (field: Synergism with Actinomycin D, normalized absorbance, Drug Resistant C5S32, +ACT D) = 1.00
